target.or.system: DNA topoisomerase 2-alpha (Homo sapiens) (UniProt P11388)
Sequence (P11388 whole entry): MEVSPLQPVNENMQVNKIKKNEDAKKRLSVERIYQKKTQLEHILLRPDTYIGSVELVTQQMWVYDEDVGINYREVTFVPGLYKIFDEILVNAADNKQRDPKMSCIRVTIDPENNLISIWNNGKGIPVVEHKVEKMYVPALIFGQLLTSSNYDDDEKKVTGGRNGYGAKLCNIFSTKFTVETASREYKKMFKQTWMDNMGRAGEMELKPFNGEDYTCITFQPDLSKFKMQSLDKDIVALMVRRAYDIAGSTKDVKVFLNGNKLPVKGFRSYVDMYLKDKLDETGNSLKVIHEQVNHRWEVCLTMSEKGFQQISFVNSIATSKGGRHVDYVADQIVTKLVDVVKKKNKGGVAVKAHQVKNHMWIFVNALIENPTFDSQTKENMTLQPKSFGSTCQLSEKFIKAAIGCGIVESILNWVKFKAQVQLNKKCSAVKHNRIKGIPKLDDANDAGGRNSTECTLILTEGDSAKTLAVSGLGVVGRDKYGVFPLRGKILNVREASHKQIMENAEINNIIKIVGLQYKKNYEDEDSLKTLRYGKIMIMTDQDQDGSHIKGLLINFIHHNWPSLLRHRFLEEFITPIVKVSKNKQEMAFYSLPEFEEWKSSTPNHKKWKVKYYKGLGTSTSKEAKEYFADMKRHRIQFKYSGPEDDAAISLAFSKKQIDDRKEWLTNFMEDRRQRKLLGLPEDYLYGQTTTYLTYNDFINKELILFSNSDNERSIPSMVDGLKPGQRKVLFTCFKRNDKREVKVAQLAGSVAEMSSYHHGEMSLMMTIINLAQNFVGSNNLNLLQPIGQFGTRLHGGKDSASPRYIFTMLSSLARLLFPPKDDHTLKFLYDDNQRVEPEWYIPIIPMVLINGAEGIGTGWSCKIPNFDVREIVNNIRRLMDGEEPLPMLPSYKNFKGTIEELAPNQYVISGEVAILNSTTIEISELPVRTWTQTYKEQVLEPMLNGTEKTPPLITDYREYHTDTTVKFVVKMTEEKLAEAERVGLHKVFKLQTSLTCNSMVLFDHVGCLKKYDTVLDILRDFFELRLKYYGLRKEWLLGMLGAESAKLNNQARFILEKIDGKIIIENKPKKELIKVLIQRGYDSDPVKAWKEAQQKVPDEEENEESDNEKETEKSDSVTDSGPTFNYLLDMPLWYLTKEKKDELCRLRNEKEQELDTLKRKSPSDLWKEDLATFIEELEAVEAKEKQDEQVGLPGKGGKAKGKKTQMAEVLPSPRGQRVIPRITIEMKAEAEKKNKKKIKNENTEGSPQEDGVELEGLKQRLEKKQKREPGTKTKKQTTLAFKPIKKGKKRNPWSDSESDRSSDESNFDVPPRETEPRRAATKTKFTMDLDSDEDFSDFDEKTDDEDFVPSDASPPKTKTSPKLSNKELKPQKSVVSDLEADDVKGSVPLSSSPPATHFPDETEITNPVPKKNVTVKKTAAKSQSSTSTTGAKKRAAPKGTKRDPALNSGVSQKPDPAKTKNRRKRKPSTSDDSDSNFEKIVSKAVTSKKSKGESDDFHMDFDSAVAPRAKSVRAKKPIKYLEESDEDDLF
protocol.description: Inhibition of human topoisomerase 2-alpha using supercoiled pBR322 plasmid DNA as substrate at 100 uM after 30 mins by agarose gel electrophoresis method relative to control
measurement.kind: inhibition (%)

Use the examples below as a reference point.
compound: O=C1c2ccccc2-c2nc(-c3cccc(O)c3)cc(-c3ccccc3)c21
target.or.system: DNA topoisomerase 2-alpha (Homo sapiens) (UniProt P11388)
measurement.kind: inhibition
measured.number: 22.5

compound: O=C1c2ccccc2-c2nc(-c3ccccc3)cc(-c3cccc(O)c3)c21
target.or.system: DNA topoisomerase 2-alpha (Homo sapiens) (UniProt P11388)
measurement.kind: inhibition
measured.number: 9.3

A = O=C1c2ccccc2-c2nc(-c3cccc(O)c3)cc(-c3ccc(O)cc3)c21
B = O=C1c2ccccc2-c2nc(-c3ccccc3O)cc(-c3ccccc3)c21
Task: Which shows the larger inhibition value: A or B ? The response must carry the label of the picked entry.
Output: A
